Tested on: CEM cells
Protocol Description: Initial half-life of triphosphates in CEM cells
Type: cell-based
Condition Info: CEM cells after 1 hour with 100 nM radiolabeled nucleoside, then fresh medium; 5′-triphosphate peak
Assay Endpoint: Initial Half-Life, Hours (SD)
Field note: include the unit after the figure.

| Compound | Initial Half-Life, Hours (SD) |
| --- | --- |
| Nc1ccn(C2SC(COP(=O)(O)OP(=O)(O)OP(=O)(O)O)C(O)C2O)c(=O)n1 (stereo not shown) | 10.8 ± 1.80 h |
| Nc1ccn([C@@H]2O[C@H](COP(=O)(O)OP(=O)(O)OP(=O)(O)O)[C@@H](O)[C@@H]2O)c(=O)n1 | 5.31 ± 0.31 h |
| Nc1ccn([C@H]2C[C@H](O)[C@@H](COP(=O)(O)OP(=O)(O)OP(=O)(O)O)O2)c(=O)n1 | 0.94 ± 0.16 h |

[ask] Look up Initial Half-Life, Hours (SD): Nc1ccn(C2CC(O)C(COP(=O)(O)OP(=O)(O)OP(=O)(O)O)S2)c(=O)n1 (stereo not shown)
[reply] 1.10 ± 0.35 h
